Target: T1, human PCSK9 (human, UniProt Q8NBP7 31-692)
T1 construct: also called hPCSK9; huPCSK9
Experiment: PCSK9:LDLR FRET, competition
pIC50: −log10 of the molar value.
Item-by-item account of pIC50
measured-parameter: pIC50

binder	measured-parameter	number
PCSK9-PKE2 tandem 4472_F06 (designed binder, The real molecule is ONE polypeptide: PCSK9 domain, undisclosed linker 'G' (a code letter, not the residue), PKE2 domain. It is given here as two chains because the linker letters are unknown., not shown: The inter-domain linker) PCSK9 domain: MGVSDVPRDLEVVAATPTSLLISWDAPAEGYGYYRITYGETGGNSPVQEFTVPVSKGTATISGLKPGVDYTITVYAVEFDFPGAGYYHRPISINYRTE PKE2 domain: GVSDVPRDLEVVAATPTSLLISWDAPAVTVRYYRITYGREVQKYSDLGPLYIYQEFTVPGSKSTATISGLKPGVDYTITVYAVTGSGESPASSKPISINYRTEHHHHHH	pIC50	8.96
PCSK9-PKE2 tandem 4472_D08 (designed binder, not shown: small tags and cut ends, The two parts are one polypeptide in the real molecule, joined by the undisclosed linker N; they are given here as separate chains.) PCSK9 10Fn3: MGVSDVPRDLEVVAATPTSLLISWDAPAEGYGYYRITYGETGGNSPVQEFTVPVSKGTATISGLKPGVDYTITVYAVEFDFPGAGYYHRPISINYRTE PKE2 10Fn3: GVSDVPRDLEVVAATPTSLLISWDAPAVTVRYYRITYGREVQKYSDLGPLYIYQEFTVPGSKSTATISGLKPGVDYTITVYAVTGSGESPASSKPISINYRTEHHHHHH	pIC50	8.77
PCSK9-PKE2 tandem 4472_B10 (designed binder, The real molecule is ONE polypeptide: PCSK9 domain, undisclosed linker J, PKE2 domain. It is given here as two chains because the linker letters are unknown., not shown: The inter-domain linker) PCSK9 domain: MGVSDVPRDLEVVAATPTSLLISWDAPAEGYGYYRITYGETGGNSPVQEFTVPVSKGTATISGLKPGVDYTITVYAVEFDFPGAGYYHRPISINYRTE PKE2 domain: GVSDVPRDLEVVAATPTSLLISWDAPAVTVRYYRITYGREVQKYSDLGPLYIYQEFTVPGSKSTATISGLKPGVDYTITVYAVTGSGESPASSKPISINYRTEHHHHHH	pIC50	8.66
PCSK9-PKE2 tandem 4472_E09 (designed binder, In the real molecule the two parts given here are one polypeptide, joined by the undisclosed linker A. They are written as two chains only because the linker has no letters., not shown: Linker 'A' joining ...NYRTE of the PCSK9 domain to GVSDV... of the PKE2 domain) PCSK9 domain: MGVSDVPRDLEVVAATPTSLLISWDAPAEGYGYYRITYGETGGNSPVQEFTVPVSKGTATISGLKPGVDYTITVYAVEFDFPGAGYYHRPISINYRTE PKE2 domain: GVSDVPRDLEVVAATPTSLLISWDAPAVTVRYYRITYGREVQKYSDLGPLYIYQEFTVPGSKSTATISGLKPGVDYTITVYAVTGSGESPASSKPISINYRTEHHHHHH	pIC50	8.89
PCSK9-PKE2 tandem 4472_E05 (designed binder, not shown: small tags and cut ends, The two parts are one polypeptide in the real molecule, joined by the undisclosed linker R; they are given here as separate chains.) PCSK9 10Fn3: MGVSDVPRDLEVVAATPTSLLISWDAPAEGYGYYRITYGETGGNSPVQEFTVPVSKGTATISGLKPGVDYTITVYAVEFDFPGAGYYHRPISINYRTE PKE2 10Fn3: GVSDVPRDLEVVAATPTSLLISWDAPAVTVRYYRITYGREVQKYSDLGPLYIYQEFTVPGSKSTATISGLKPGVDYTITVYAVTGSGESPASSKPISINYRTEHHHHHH	pIC50	8.82
